assay: S. pombe growth modifiers, basal conditions – strain 972, OD600, 24 h, no modulator, primary screen (AID 1090);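 also: basal condition with compound alone and no growth modifier present; test concentration not given here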; conditions: S. pombe 972 growth, higher = more signal, called active from +8 up or from −8 down
Entries are grouped by z-score into these classes: 1: < -0.3; 2: ≥ -0.3 and < 0.6; 3: ≥ 0.6

Prompt: Where would COC(=O)[C@@]1(Cc2ccc(F)cc2)[C@H]2c3cc(C(=O)N4CCCC4)n(Cc4ccc(Cl)c(C(F)(F)F)c4)c3C[C@H]2CN1C(=O)c1ccccc1 land among the classes by reported z-score?
Response: 3

---

target: Torsin-1A-interacting protein 2 (Homo sapiens) (UniProt Q8NFQ8); assay: small molecules binding lysate-expressed LULL1 – cell lysate, human LULL1 lysate, 635/667 nm fluorescence, primary screen (AID 1092); conditions: small-molecule microarray, hLULL1 lysate binding, 635 nm fluorescence; higher = more signal;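 also: probe is lysate of COS7 cells overexpressing human LULL1; score merges per-feature 667 nm fluorescence with signal-to-noise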
Sequence (Q8NFQ8 whole entry, looked up): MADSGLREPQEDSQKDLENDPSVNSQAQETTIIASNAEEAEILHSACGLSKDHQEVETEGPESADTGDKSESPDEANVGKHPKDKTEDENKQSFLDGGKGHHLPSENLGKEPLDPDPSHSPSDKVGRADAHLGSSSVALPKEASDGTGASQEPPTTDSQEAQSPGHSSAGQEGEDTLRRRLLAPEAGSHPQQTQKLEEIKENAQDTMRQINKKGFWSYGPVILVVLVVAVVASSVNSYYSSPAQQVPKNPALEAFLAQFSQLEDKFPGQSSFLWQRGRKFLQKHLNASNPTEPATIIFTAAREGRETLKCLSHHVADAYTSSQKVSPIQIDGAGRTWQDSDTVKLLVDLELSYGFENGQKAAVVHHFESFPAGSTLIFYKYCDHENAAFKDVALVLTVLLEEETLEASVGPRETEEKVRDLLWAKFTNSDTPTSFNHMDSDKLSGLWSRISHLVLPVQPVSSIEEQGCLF
recorded-endpoint: composite z-score

Prompt: Item [N-]=[N+]=NCc1ccccc1C[C@@]1(C(=O)NCc2ccccc2)N=C(c2ccc(OCCCO)cc2)O[C@@H]1c1ccccc1CN=[N+]=[N-] has what recorded composite z-score?
Response: 3.25

Prompt: What measured composite z-score goes with O=C1c2ccccc2[C@@]2(Cc3ccccc3N(Cc3ccccc3)C2=O)[C@H](c2ccc(CO)cc2)N1Cc1ccccc1C(F)(F)F ?
Response: 2.03

Prompt: Returns the measured composite z-score for the input compound. Input: O=C(CS)NCCCCCNC(=O)[C@H]1C[C@H]2C(=O)N[C@@H](Cc3ccccc3)C(=O)N2[C@H]1c1cccc(OCCO)c1
Response: 2.55

Prompt: Please give the measured composite z-score for this compound: C=C(/C(=C/C[C@@H](OC(C)=O)c1ccc(CO)o1)c1cnc2ccccc2c1)C(C)C
Response: 1.86

---

# z-score annotations
assay: viability profiling in RPMI8226 myeloma cells – cell-based, resazurin fluorescence, basal, 24 h, PK04 Diversity Set, profiling panel (AID 1180); settings: higher = more signal;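 also: RPMI8826 multiple myeloma cell line at 5000 cells per well; test concentration not given here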
Keep the answer to the number alone.

Prompt: Which measured z-score value corresponds to COCCCNC(=O)[C@@]1(C)c2ccccc2C(=O)N(Cc2ccccc2)[C@H]1c1ccc(CO)cc1 ?
Response: -0.153

Prompt: What does the data say about its z-score? Entry: [N-]=[N+]=NCc1ccccc1C[C@]1(C(=O)N2CCOCC2)N=C(c2ccc(OCCCO)cc2)O[C@H]1c1ccccc1
Response: -4.46

Below: the item to evaluate.
Prompt: So what's the measured z-score for this one? O=C1O[C@H](c2ccccc2)[C@H](c2ccccc2)N2[C@H]1[C@@H](C(=O)N1CCCCCCC1)[C@]1(C(=O)Nc3ccc(C#CC4=CCCCC4)cc31)[C@H]2c1ccc(O)cc1
Response: -0.0437

---

test: S. pombe growth modifiers, basal conditions – strain 972, OD600, 24 h, no modulator, primary screen (AID 1090);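 also: basal condition with compound alone and no growth modifier present; test concentration not given here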; conditions: S. pombe 972 growth, higher = more signal, called active from +8 up or from −8 down
recorded-endpoint: z-score
Answer as a number with no unit attached.

Prompt: GET /values?readout=z-score&item= COC(=O)[C@@]1(Cc2ccc(F)cc2)[C@H]2c3cc(C(=O)N(C)C)n(CCCNc4ccc(C(F)(F)F)cc4Cl)c3C[C@H]2CN1C(=O)c1ccccc1
Response: 1.06

Prompt: What value of z-score has been recorded for this entry: COCCOC(=O)N1C(=O)[C@@]2(c3ccccc31)[C@H](c1ccc(O)cc1)N1[C@H](c3ccccc3)[C@H](c3ccccc3)OC(=O)[C@H]1[C@@H]2C(N)=O
Response: -0.153

Prompt: Sample CO[C@H]1O[C@H](CO)[C@@H](OC(=O)Nc2cccc(F)c2)[C@H](OC(=O)Nc2ccccc2-c2ccccc2)[C@@H]1OC(=O)Nc1ccccc1-c1ccccc1 — what was its z-score?
Response: 1.88

Prompt: // returns reported z-score for input CC1CC/C=C\[C@H]2OC34C=CCN(c5ccc6ccccc6c5)C(=O)[C@H]3N(CCCCCO)C(=O)[C@@H]4C2C(=O)O1 (stereo partly specified)
Response: 0.0271

Prompt: Which measured z-score value corresponds to COCCCNC(=O)[C@]1(Cc2ccccc2N=[N+]=[N-])N=C(c2ccc(OCCCO)cc2)O[C@@H]1c1ccccc1CN=[N+]=[N-] ?
Response: -0.365

Prompt: GET /values?readout=z-score&item= COc1ccc([Si](C)(C)[C@H]2[C@H](CC(=O)N(CCO)Cc3ccccc3)O[C@@]3(C(=O)N(Cc4cccc(N5C(=O)c6cccc7cccc5c67)c4)c4ccccc43)[C@@H]2C)cc1
Response: -0.897
